Data origin: patent US20260207759A1

Below, each entry is listed alongside its reported pEC50.
- MEASURED_ON: T1, human CD40 on the cell surface (Raji cells, HEK-Blue CD40L cells, primary human B cells and DCs) (human, UniProt P25942 21-277)
- T1 construct: whole, on cells; One entry is used for all cell-surface human CD40, endogenous or transfected; also called Raji cell surface human CD40
- ASSAY_NAME: flow cytometry (FACS) binding to Raji cells
A value of pEC50 is the negative decimal logarithm of a concentration given in moles per litre.

>>> numeric_result("9E6-L2H1 humanized anti-CD40 antibody (antibody, human IgG1, V domains shown) VH: EVQLQESGPGLVKPSDTLSLTCTVSGFSLSSYDMSWIRQPPGKGLEWIGAIGGAGGTYYASWAKSRVTISVDTSLNQVSLKLSSVTAADTAVYYCARGWTRLDLWGQGTLVTVSS VL: DIQLTQSPSFLSASVGDRVTITCQASEDISSNLAWYQQKPGKPPKLLIFPASNLASGVPSRFSGSGSGTEFTLTISSLQPEDFATYYCQGGYWTSTSNFGSGFGGGTKVEIK")
8.70

Prompt: Given 9E6-L4H1 humanized anti-CD40 antibody (antibody, human IgG1, V domains shown) VH: EVQLQESGPGLVKPSDTLSLTCTVSGFSLSSYDMSWIRQPPGKGLEWIGAIGGAGGTYYASWAKSRVTISVDTSLNQVSLKLSSVTAADTAVYYCARGWTRLDLWGQGTLVTVSS VL: DIQLTQSPSFLSASVGDRVTITCQASEDISSNLAWYQQKPGKPPKLLIFPASNLASGVPSRFSGSGSGTEFTLTISSLQPEDFATYYCQGGYWTSTSNFGQGFGGGTKVEIK , state its recorded pEC50.
Completion: 9.03
